Tested on: SF-268 CNS
method: NCI-60 one-dose screen, 48 h (100 = growth as untreated, 0 = no growth, -100 = all killed)
particulars: 10 µM unless noted
The panel holds about 83,000 compounds, 20% with a hit somewhere; the sample as a whole holds those more often.
Just a reminder that ties go to label 0: only growth strictly below 60% counts as label 1.

QUERY: Confirm or reject: growth of COc1ccc(-c2nsc3c2NC(=O)CC3c2ccc3c(c2)OCO3)cc1 (centres undefined) lies strictly below 60%
RESULT: label 1

QUERY: Confirm or reject: growth of CCc1ccc(-c2ccc(NC3CCCCCC3)nn2)cc1S(N)(=O)=O lies strictly below 60%
RESULT: label 0

QUERY: Confirm or reject: growth of CC1=C(C(=O)Nc2ccc(F)cc2)C(c2ccc(Cl)cc2)C2=C(CC(C)(C)CC2=O)N1 (centres undefined) lies strictly below 60%
RESULT: label 0

QUERY: Confirm or reject: growth of CN(C)c1ccc(N2Cc3ccccc3OC3=C2C(=O)c2c(O)ccc(O)c2C3=O)cn1 lies strictly below 60%
RESULT: label 1

QUERY: Confirm or reject: growth of CC1=NN(c2cccc(S(N)(=O)=O)c2)C(=O)C1 lies strictly below 60%
RESULT: label 0

QUERY: Confirm or reject: growth of O=C(/C=C/c1cn(-c2ccccc2)nc1-c1cccc(Nc2ccnc3cc(Cl)ccc23)c1)c1ccc2c(c1)OCO2 lies strictly below 60%
RESULT: label 0

QUERY: Confirm or reject: growth of O=C(Nc1ccc2[nH]c3ccccc3c2c1)c1ccccc1Cl lies strictly below 60%
RESULT: label 0

QUERY: Confirm or reject: growth of COc1ccc(C(=O)c2cc(C)c(OC)c(C)c2)cc1OC(=O)CCl lies strictly below 60%
RESULT: label 1

QUERY: Confirm or reject: growth of COC1=CC(c2ccc[nH]2)=N/C1=C\c1[nH]c(C)c(C(=O)CCCCCCCCC(=O)O[C@H]2CC[C@H]3C4CCc5cc(O)ccc5C4CC[C@]23C)c1C (some centres undefined) lies strictly below 60%
RESULT: label 1

QUERY: Confirm or reject: growth of CC(OC(=O)Nc1cccc(Cl)c1)C(=O)O (centres undefined) lies strictly below 60%
RESULT: label 0

QUERY: Confirm or reject: growth of Cc1ccc(/C=C/C(=N/N=C(N)N)c2ccccc2)cc1 lies strictly below 60%
RESULT: label 1

QUERY: Confirm or reject: growth of CN1CCN(c2ccc(N3Cc4ccccc4OC4=C3C(=O)c3c(O)ccc(O)c3C4=O)cn2)CC1 lies strictly below 60%
RESULT: label 1

QUERY: Confirm or reject: growth of CCSc1ccc([C@@H]2[C@@H](N)C(=O)N2c2cc(OC)c(OC)c(OC)c2)cc1 lies strictly below 60%
RESULT: label 1

QUERY: Confirm or reject: growth of COc1cc(-c2csc(NC(=O)Nc3cccc(C(F)(F)F)c3)n2)cc(OC)c1OC lies strictly below 60%
RESULT: label 0

QUERY: Confirm or reject: growth of CCc1oc2ccccc2c1C(=O)c1cc(I)c(O)c(I)c1 lies strictly below 60%
RESULT: label 1

QUERY: Confirm or reject: growth of CCC1CCc2nc3sc(C(=O)Nc4cccc(F)c4)c(N)c3cc2C1 (centres undefined) lies strictly below 60%
RESULT: label 0

QUERY: Confirm or reject: growth of O=C(Nc1ccc(Cl)c(C(F)(F)F)c1)c1ccc(Nc2ccc(Cl)nn2)cc1 lies strictly below 60%
RESULT: label 0

QUERY: Confirm or reject: growth of CCCCn1cnc(-c2cc(-c3ccccc3)cc(C(F)(F)F)c2)n1 lies strictly below 60%
RESULT: label 0

QUERY: Confirm or reject: growth of COc1ccc2c(c1)CCCC21C(=O)Nc2ccccc21 (centres undefined) lies strictly below 60%
RESULT: label 0

QUERY: Confirm or reject: growth of CC1=C(C(=O)Nc2ccc(F)cc2)C(c2ccc(C)cc2)C2=C(CC(C)(C)CC2=O)N1 (centres undefined) lies strictly below 60%
RESULT: label 0

QUERY: Confirm or reject: growth of Nc1nc2ccc([C@@H]3Nc4ccc5[nH]ncc5c4[C@H]4[C@H]5CCC(C5)[C@H]43)cc2s1 lies strictly below 60%
RESULT: label 1

QUERY: Confirm or reject: growth of O=C(OCc1ccc2c(Cl)cc(Cl)c(O)c2n1)c1cc2ccccc2[nH]1 lies strictly below 60%
RESULT: label 1

QUERY: Confirm or reject: growth of Cn1c(=O)c2c3c(oc2c2ccccc21)C(=O)c1ccccc1C3=O lies strictly below 60%
RESULT: label 0

QUERY: Confirm or reject: growth of COc1ccc(/C=C2\CCCC3=C2N=C2SC(C)=NN2C3c2ccc(OC)c(OC)c2)cc1OC (centres undefined) lies strictly below 60%
RESULT: label 1

QUERY: Confirm or reject: growth of COc1ccc2c(c1)CCCC21C(=O)Nc2c(Cl)cccc21 (centres undefined) lies strictly below 60%
RESULT: label 0

QUERY: Confirm or reject: growth of COc1ccc(NC(=O)/C=C/c2ccc(Cl)c(Cl)c2)cn1 lies strictly below 60%
RESULT: label 0

QUERY: Confirm or reject: growth of Cn1nc(C(F)(F)F)cc1-c1cc(Cl)c(OCc2ccc(Cl)cc2)c(-c2ccc(Cl)c(C(F)(F)F)c2)c1O lies strictly below 60%
RESULT: label 1

QUERY: Confirm or reject: growth of O=C(CI)NCCNc1cccc2c(S(=O)(=O)O)cccc12 lies strictly below 60%
RESULT: label 0

QUERY: Confirm or reject: growth of C#CC[C@@H]1C[C@]2(C)[C@H]3CC=C4[C@H]5CC(C)(C)CC[C@]5(C(=O)NCCCCN)CC[C@@]4(C)[C@]3(C)CC[C@H]2C(C)(C)[C@H]1OC(C)=O lies strictly below 60%
RESULT: label 0

QUERY: Confirm or reject: growth of O=C(CCc1nc2sc3c(c2c(=O)[nH]1)CCC3)NCc1cn(-c2ccccc2)nc1-c1ccccc1 lies strictly below 60%
RESULT: label 0

QUERY: Confirm or reject: growth of CCN(CC)Cc1cc(Nc2ccnc3cc(Cl)ccc23)cc(-c2ccc(Cl)cc2)c1O lies strictly below 60%
RESULT: label 1

QUERY: Confirm or reject: growth of CCOC(=O)c1sc2nc(-c3cc4ccccc4o3)cc(-c3ccc(Cl)cc3)c2c1N lies strictly below 60%
RESULT: label 0

QUERY: Confirm or reject: growth of CN1CCN(Cc2ccc(NC(=O)c3cncc(C#Cc4cnc5cccnn45)c3)cc2C(F)(F)F)CC1 lies strictly below 60%
RESULT: label 1

QUERY: Confirm or reject: growth of COCCCNCC(=O)Nc1c(C)cccc1C lies strictly below 60%
RESULT: label 0

QUERY: Confirm or reject: growth of NNC(=O)Cc1ccccc1 lies strictly below 60%
RESULT: label 0

QUERY: Confirm or reject: growth of C#CC[C@@H]1C[C@]2(C)[C@H]3CC=C4[C@H]5[C@@H](C)[C@H](C)CC[C@]5(C(=O)NCCCCCCCCN)CC[C@@]4(C)[C@]3(C)CC[C@H]2C(C)(C)[C@H]1OC(C)=O lies strictly below 60%
RESULT: label 0

QUERY: Confirm or reject: growth of NC(=Nc1ccccc1)SCCCSC(N)=Nc1ccccc1 lies strictly below 60%
RESULT: label 0

QUERY: Confirm or reject: growth of CN(C)c1ccc(/C=C(\C#N)c2nc3ccccc3n2C)cc1 lies strictly below 60%
RESULT: label 1

QUERY: Confirm or reject: growth of Cc1c(C)c(C)c([N+](=O)[O-])c([N+](=O)[O-])c1C lies strictly below 60%
RESULT: label 0

* * *

Please respond with reported growth for every item in the list.
Tested on: HCT-116 colon
method: NCI-60 one-dose screen, 48 h (100 = growth as untreated, 0 = no growth, -100 = all killed)
particulars: 10 µM unless noted
About 83,000 compounds went through this panel and 20% of them were active in at least one assay; those are over-represented in the sample as a whole. Calls of active or inactive are those of the source. Rule for the calls: active = growth percent below 10; inactive = the rest.

QUERY: Determine from records and report growth for C/C(=N\OC(=O)Nc1ccccc1)c1ccccc1
RESULT: 105% (inactive)

QUERY: Determine from records and report growth for COc1ccc(Nc2ncnc3c2sc2nc(C)cc(C)c23)cc1
RESULT: 90.4% (inactive)

QUERY: Determine from records and report growth for CC(C)NC(=O)OCC#CCOC(=O)NC(C)C
RESULT: 95.4% (inactive)

QUERY: Determine from records and report growth for CN(C)c1ccc(/C=C(\C#N)c2nc3ccccc3n2C)cc1
RESULT: 33.2% (inactive)

QUERY: Determine from records and report growth for Brc1cccc(-n2ncc3c(Nc4ccc(-c5nnc(-c6ccccc6)o5)cc4)ncnc32)c1
RESULT: 94.7% (inactive)

QUERY: Determine from records and report growth for CC(C)CC(NC(=O)C(CCCN=C(N)N)NC(=O)OCc1ccccc1)C(=O)NC(CNC(=O)/C=C/c1ccccc1)C(C)C (stereo unspecified)
RESULT: 102% (inactive)

QUERY: Determine from records and report growth for Cc1cc(C#Cc2ccccc2)ccc1-n1c(/C=C/c2ccc(F)cc2)nc2ccccc2c1=O
RESULT: 46% (inactive)

QUERY: Determine from records and report growth for COC(=O)c1cc(Cl)cc([N+](=O)[O-])c1O
RESULT: 101% (inactive)

QUERY: Determine from records and report growth for COc1ccc(C(=O)C(CN(C)C)c2ccccc2)cc1 (stereo unspecified)
RESULT: -99.1% (active)

QUERY: Determine from records and report growth for Cc1ccc(N=CNN=C(N)N)cc1
RESULT: 103% (inactive)

QUERY: Determine from records and report growth for CCCCCCCCCCCCCCCCOc1ccc(S(=O)(=O)N(C)C)cc1[N+](=O)[O-]
RESULT: 98.2% (inactive)

Every entry's value here was drawn from PubChem BioAssay (NCI).
